Molecular target: human DLL4 (human) (UniProt Q9NR61)
Assay: Biacore (SPR), DVD-Ig and huDLL4
Assign koff to each entry below.
Report as a plain number; the unit s⁻¹ is understood.

Query block: Please give measured koff of the following entry: h1A11.1-B9-S2-SS-Anti-VEGF DVD-Ig (bispecific antibody, part only; not given: anti-VEGF domains, h1A11.1 VL, constant regions, part only) heavy, part: EVQLVESGGGLVQPGGSLRLSCAASGFTFSHFPMAWVRQAPGKGLEWVASISSSDSTTNYRDSVKGRFTISRDNAKNSLYLQMNSLRAEDTAVYYCARGYYNSPFAYWGQGTLVTVSSASTKGP light, part: TVAAP
Result block: 0.000106

Query block: Please give measured koff of the following entry: h1A11.1-F7-S2-SS-Anti-VEGF DVD-Ig (bispecific antibody, part only; not given: anti-VEGF domains, h1A11.1 VL, constant regions, part only) heavy, part: EVQLVESGGGLVQPGGSLRLSCAASGFTFRHFPMTWVRQAPGKGLEWVASISSSDGTINYRDSVKGRFTISRDNAKNSLYLQMNSLRAEDTAVYYCARGYYNSPFAYWGQGTLVTVSSASTKGP light, part: TVAAP
Result block: 0.000319

Query block: Please give measured koff of the following entry: h1A11.1-H3-S2-SS-Anti-VEGF DVD-Ig (bispecific antibody, part only; not given: anti-VEGF domains, h1A11.1 VL, constant regions, part only) heavy, part: EVQLVESGGGLVQPGGSLRLSCAASGFTFRNFPMAWVRQAPGKGLEWVASISSSDGTTNYRDSVKGRFTISRDNAKSSLYLQMNSLRAEDTAVYYCARGYYNSPFAYWGQGTLVTVSSASTKGP light, part: TVAAP
Result block: 0.000136

Query block: Please give measured koff of the following entry: h1A11.1-G7-S2-SS-Anti-VEGF DVD-Ig (bispecific antibody, part only; not given: anti-VEGF domains, h1A11.1 VL, constant regions, part only) heavy, part: EVQLVESGGGLVQPGGSLRLSCAASGFTFNHFPMAWVRQAPGKGLEWVATISSSDWTPYYRDSVKGRFTISRDNAKNSLYLQMNSLRAEDTAVYYCARGYYNSPFAYWGQGTLVTVSSASTKGP light, part: TVAAP
Result block: 0.000155

Data provenance is patent US9915665.
